experiment: Primary phase half life in CD-1 mouse plasma at 25 mg/kg, sc by UPLC analysis; assay type: ADME, organism-based; conditions: read-out: alphat1/2
Quantity: half-life (min)

>>> observed_measurement("O=C(NO)[C@H]1C[C@H](OC(=O)N2CCCC2)CC[C@@H]1C(=O)N1CCC(c2ccccc2)CC1")
15.4

---

assay: Elimination half life in CD-1 mouse brain at 25 mg/kg, sc by UPLC analysis; type: ADME, organism-based; details: read-out: beta t1/2
Quantity: half-life (h)

>>> observed_measurement("O=C(NO)[C@H]1C[C@H](OC(=O)N2CCCC2)CC[C@@H]1C(=O)N1CCC(c2ccccc2)CC1")
10.5

---

assay: Elimination half life in CD-1 mouse brain at 10 mg/kg, ip by UPLC analysis; type: ADME, organism-based; details: read-out: beta t1/2
Quantity: half-life (h)

>>> observed_measurement("O=C(NO)[C@H]1C[C@H](OC(=O)N2CCCC2)CC[C@@H]1C(=O)N1CCC(c2ccccc2)CC1")
3.4

---

test: Primary phase half life in CD-1 mouse brain at 25 mg/kg, sc by UPLC analysis; type: ADME, organism-based; conditions: read-out: alphat1/2
Quantity: half-life (min)

>>> observed_measurement("O=C(NO)[C@H]1C[C@H](OC(=O)N2CCCC2)CC[C@@H]1C(=O)N1CCC(c2ccccc2)CC1")
11.4

---

experiment: Elimination half life in CD-1 mouse plasma at 25 mg/kg, sc by UPLC analysis; assay type: ADME, organism-based; conditions: read-out: beta t1/2
Quantity: half-life (h)

>>> observed_measurement("O=C(NO)[C@H]1C[C@H](OC(=O)N2CCCC2)CC[C@@H]1C(=O)N1CCC(c2ccccc2)CC1")
2.63

Measured values drawn from ChEMBL document CHEMBL4145666 for this set.
